experiment: chemical genetic growth profiling, strain panel (AID 1159580);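 note: tested at 20 µM; growth read once vehicle control cultures reached saturation at 30 °C; 1 = growth at the plate median or of vehicle wells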; details: S. cerevisiae deletion strains, growth OD, locus YML124C, strain tub3
Screen size: about 5,500 compounds; about 2,000 (36%) were called active. Inconclusive results (about 18%) are left out. Cut-off read from the data, not from the text of the source: active = normalized growth mostly below about 0.91 (no sharp cut-off); inconclusive = no clear call, values can overlap the other calls; inactive = mostly above about 0.92. The list shows a part of the results.
Reply using exactly one outcome from active, inactive

## Task What outcome does the record of this test show for `NNCc1cccc(O)c1` ?
## Result inactive

## Task What outcome does the record of this test show for `CC[N+](C)(C)c1cccc(O)c1` ?
## Result inactive

## Task What outcome does the record of this test show for `COC(=O)c1c(C)c2c(c(C)c1OC)OC(=O)c1c(C)c(Cl)c(OC)c(Cl)c1O2` ?
## Result inactive

## Task What outcome does the record of this test show for CC(C)CCCC(C)[C@H]1CCC2C3CC[C@@H]4C[C@H](O)CC[C@]4(C)C3CC[C@@]21C (some centres not stated) ?
## Result inactive

## Task What outcome does the record of this test show for CC(=O)O[C@@H]1CC[C@@]2(C)C(C[C@@H](OC(C)=O)[C@@]3(C)C4=CC(=O)O[C@@H](c5ccoc5)[C@]4(C)CCC23)C1(C)C (some centres not stated) ?
## Result inactive

## Task What outcome does the record of this test show for `CS(=O)(=O)Nc1ccc([N+](=O)[O-])cc1Oc1ccccc1` ?
## Result inactive

## Task What outcome does the record of this test show for `COC(=O)c1c(OC)cc2c(c1C)Oc1c(Cl)c(O)c(Cl)c(C)c1C(=O)O2` ?
## Result inactive

## Task What outcome does the record of this test show for `CC(=O)c1ccc(O)c(CC=C(C)C)c1` ?
## Result inactive

## Task What outcome does the record of this test show for CC(=O)O[C@@H]1C=C[C@@]2(C)C(C[C@@H](OC(C)=O)[C@@]3(C)C4=CC(=O)O[C@@H](c5ccoc5)[C@]4(C)CCC23)C1(C)C (some centres not stated) ?
## Result active

## Task What outcome does the record of this test show for `NCC(=O)c1ccccc1` ?
## Result inactive

## Task What outcome does the record of this test show for CC(=O)OCC(=O)[C@@]1(O)[C@H](C)CC2C3CCC4=CC(=O)C=C[C@]4(C)[C@@]3(F)[C@@H](O)C[C@@]21C (some centres not stated) ?
## Result inactive

## Task What outcome does the record of this test show for `CCN(CC)CCOC(=O)C1(C2CCCCC2)CCCCC1` ?
## Result inactive

* * *

experiment: chemical genetic growth profiling, strain panel (AID 1159580); conditions: S. cerevisiae deletion strains, growth OD, locus YJL134W, strain LCB3, stronger effect = lower value
In all, about 5,500 compounds went through this assay and about 2,000 (36%) were called active. About 18% were inconclusive and are not listed. Some of the results follow.
assay-metric: normalized growth
Numbers only.

Consider the reported normalized growth for these compounds:
# compound, assay-metric, numeric-value
data = [
    ("CC(N=C(NC#N)Nc1ccncc1)C(C)(C)C (centres undefined)", "normalized growth", 1.01),
    ("COC(=O)c1c(C)c2c(c(C)c1O)OC(=O)c1c(C)c(Cl)c(O)c(Cl)c1O2", "normalized growth", 1),
    ("CC(=O)Oc1c(Cl)c(C)c2c(c1Cl)OC(=O)c1c(C)c(Cl)c(OC(C)=O)c(Cl)c1O2", "normalized growth", 1.04),
]

Now look at this entry.
## Task Give normalized growth for Cc1ccc2c(c1)C1(C)CCCC(C)(C(=O)O)C1CC2 (centres undefined)
## Result 1.01

* * *

Kindly state normalized growth for each of the entries shown.
assay: chemical genetic growth profiling, strain panel (AID 1159580);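 note: tested at 20 µM; growth read once vehicle control cultures reached saturation at 30 °C; 1 = growth at the plate median or of vehicle wells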; conditions: S. cerevisiae deletion strains, growth OD, locus YCR088W, strain abp1, stronger effect = lower value
About 2,000 (36%) of roughly 5,500 compounds were called active. About 18% were inconclusive and are not listed. The list shows a part of the results.
Answers are plain numbers.

Consider the reported normalized growth for these molecules:
# molecule, normalized growth
rows = [
    ("CC(CCC(=O)O)[C@H]1CCC2C3CC[C@@H]4C[C@H](O)CC[C@]4(C)C3C=C[C@@]21C (stereo partly drawn)", 1.02),
    ("CN(C)CCCN1c2ccccc2Sc2ccc(C(F)(F)F)cc21", 1.02),
]

## Task Give normalized growth for `O=C(O)c1cccnc1`
## Result 0.992

* * *

assay: chemical genetic growth profiling, strain panel (AID 1159580);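 note: tested at 20 µM; growth read once vehicle control cultures reached saturation at 30 °C; 1 = growth at the plate median or of vehicle wells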; details: S. cerevisiae deletion strains, growth OD, locus YKL009W, strain mrt4, stronger effect = lower value
Out of some 5,500 compounds screened, about 2,000 (36%) were called active. Another 18% or so got no clear call; they are omitted. This is one part of the list.
assay-metric: normalized growth
Numbers only.

Consider the reported normalized growth for these compounds:
# compound, numeric-value
data = [
    ("CC(C)CCCC(C)C1CC[C@@]2(C)C3=C(CC[C@]12C)[C@@]1(C)CC[C@H](O)C(C)(C)C1CC3 (some centres undefined)", 0.939),
    ("CN(C)C(=O)Oc1cccc([N+](C)(C)C)c1", 0.969),
    ("CN(C)c1ccc(O)c2c1C[C@H]1C[C@H]3[C@H](N(C)C)C(=O)C(C(N)=O)=C(O)[C@@]3(O)C(=O)C1=C2O", 0.974),
    ("CC(=O)O[C@H]1CCC2(C)C3=C(CCC2C1(C)C)[C@@]1(C)CC[C@@H](C(C)CCC=C(C)C)[C@]1(C)CC3 (some centres undefined)", 0.846),
    ("CC(C)=CCc1c2c(c3occ(-c4ccc(O)cc4)c(=O)c3c1O)C=CC(C)(C)O2", 0.961),
]

Your task in this section: give normalized growth for each listed record.
1. CC(C)=CCCC(C)C1CC[C@@]2(C)C3=C(CC[C@]12C)C1(C)CC[C@H](O)C(C)(C)C1CC3 (some centres undefined)
2. CC(=O)Oc1ccc(/C=C/c2cc(OC(C)=O)cc(OC(C)=O)c2)cc1
3. CC(C)=CCCC(C)[C@@H]1CC[C@]2(C)C3=C(CC[C@@]12C)C1(C)CC[C@H](O)C(C)(C)C1CC3 (some centres undefined)
4. CC(C)=CCc1c2c(c3occ(-c4ccc(O)c(O)c4)c(=O)c3c1O)C=CC(C)(C)O2

## Result
0.822
1.04
0.775
0.867

* * *

experiment: chemical genetic growth profiling, strain panel (AID 1159580);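 note: tested at 20 µM; growth read once vehicle control cultures reached saturation at 30 °C; 1 = growth at the plate median or of vehicle wells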; settings: S. cerevisiae deletion strains, growth OD, locus YGL248W, strain PDE1
Among all 5,500 compounds or so, about 2,000 (36%) were called active. Another 18% or so got no clear call; they are omitted. No stated cut-off is given here; in the data, active means normalized growth mostly below about 0.91 (no sharp cut-off); inconclusive means no clear call, values can overlap the other calls; inactive means mostly above about 0.92. The list shows a part of the results.
Reply using exactly one outcome from y = active, n = inactive

Solved entries:
# compound, category
records = [
    ("C/C1=C\\CC(C)(C)/C=C/CC2(C)OC2CC1 (stereo unspecified)", "n"),
    ("CC(=O)N[C@@H](Cc1c[nH]c2ccccc12)C(N)=O", "n"),
    ("CC(C)CCCC(C)C1CCC2C3=CC[C@H]4C[C@@H](O)CC[C@]4(C)C3CC[C@@]21C (stereo partly specified)", "n"),
    ("CC(=O)O[C@@H]1CC[C@@]2(C)C(C[C@@H](OC(C)=O)[C@@]3(C)C4=CC(=O)O[C@@H](c5ccoc5)[C@]4(C)CCC23)C1(C)C (stereo partly specified)", "n"),
    ("CCN1CCN(C(=O)NC(C(=O)N[C@@H]2C(=O)N3[C@@H]2SC(C)(C)[C@@H]3C(=O)O)c2ccccc2)C(=O)C1=O (stereo partly specified)", "n"),
]

## Task What outcome does the record of this test show for CC(=O)OC1CCC2(C)C(CC(OC(C)=O)C3(C)C4=CC(=O)OC(c5ccoc5)C4(C)CCC23)C1(C)C (stereo unspecified) ?
## Result n

## Task What outcome does the record of this test show for CC(=O)O[C@@H]1CC2C(C)(C)C(=O)C=C[C@]2(C)C2CC[C@]3(C)C(=CC(=O)O[C@H]3c3ccoc3)[C@@]21C (stereo partly specified) ?
## Result n

## Task What outcome does the record of this test show for `Oc1c(Cl)cc(Cl)cc1Sc1cc(Cl)cc(Cl)c1O` ?
## Result n

## Task What outcome does the record of this test show for `C=C1c2cccc(O)c2C(O)=C2C(=O)[C@]3(O)C(O)=C(C(N)=O)C(=O)[C@@H](N(C)C)[C@@H]3[C@@H](O)[C@H]12` ?
## Result n

## Task What outcome does the record of this test show for `O=C1NC(O)=NC1(c1ccccc1)c1ccccc1` ?
## Result n

## Task What outcome does the record of this test show for CC(=O)O[C@H]1CC[C@@]2(C)C(=CC(=O)C3C4CCC(C(C)CCCC(C)C)[C@@]4(C)CCC32)C1 (stereo partly specified) ?
## Result n

## Task What outcome does the record of this test show for CC(C)CCCC(C)[C@H]1CCC2C3CC=C4C[C@@H](O)CC[C@]4(C)C3CC[C@@]21C (stereo partly specified) ?
## Result n

## Task What outcome does the record of this test show for CC(C)CC(NC(=O)OCC1c2ccccc2-c2ccccc21)C(=O)O (stereo unspecified) ?
## Result n
